I'd appreciate it if you could supply clearance values for the items below.
protocol text: Clearance in C57BL/6J mouse at 5 mg/kg, iv measured up to 8 hrs
Assay type: ADME, organism-based
Parameters: dose 5 mg/kg, route intravenous
applied conditions: in vivo
Respond numerically; units are mL/min/kg and should not be typed.

Query: Quick one: clearance of COc1ccc(/C=C/C(=O)Nc2ncc(Cc3cccc(C(F)(F)F)c3)s2)cc1 ?
Reply: 32

Query: Can you handle COc1cc(C(=O)Nc2ncc(Cc3cccc(C(F)(F)F)c3)s2)ccc1OCCO next?
Reply: 3.4

---

assayed system: Stearoyl-CoA desaturase (Homo sapiens, UniProt O00767)
Sequence (O00767 whole entry): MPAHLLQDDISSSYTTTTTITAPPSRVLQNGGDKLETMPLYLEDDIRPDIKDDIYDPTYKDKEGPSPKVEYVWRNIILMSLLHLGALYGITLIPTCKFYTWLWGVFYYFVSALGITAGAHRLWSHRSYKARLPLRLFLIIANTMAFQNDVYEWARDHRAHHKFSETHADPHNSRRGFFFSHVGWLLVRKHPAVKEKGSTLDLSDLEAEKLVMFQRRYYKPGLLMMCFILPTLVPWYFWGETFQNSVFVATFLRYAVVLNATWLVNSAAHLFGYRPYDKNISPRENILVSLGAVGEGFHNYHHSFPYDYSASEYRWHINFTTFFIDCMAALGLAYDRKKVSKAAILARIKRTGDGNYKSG
protocol text: Inhibition of SCD1 in human microsomes assessed as conversion of [14C]stearate to [14C]oleate after 60 mins
Design: species or system Microsome
pIC50: −log10 of the molar value.
Response key: 1 (yes) means pIC50 >= 8; 0 (no) means pIC50 < 8.

Query: // inclusive: pIC50 at least 8? input: COc1ccc(C(=O)Nc2ncc(Cc3cccc(OC(F)(F)F)c3)s2)cc1OCCO
Reply: 1 (yes)

Query: Can you handle COc1ccc(C(=O)Nc2ncc(Cc3ccc(F)c(C(F)(F)F)c3)s2)cc1OCCO next?
Reply: 1 (yes)

Query: Can you handle COc1ccc(C(=O)Nc2ncc(Cc3ccc(C)c(F)c3)s2)cc1OCCO next?
Reply: 0 (no)

Query: Can you handle COc1ccc(C(=O)Nc2ncc(Cc3cccc(Cl)c3)s2)cc1OCCO next?
Reply: 1 (yes)

Query: Can you handle COc1cc(C(=O)Nc2ncc(Cc3cccc(C(F)(F)F)c3)s2)ccc1OCCN1CCOCC1 next?
Reply: 0 (no)

Query: Can you handle COc1ccc(C(=O)Nc2ncc(Cc3cc(Cl)ccc3Cl)s2)cc1OCCO next?
Reply: 0 (no)

Query: Can you handle COc1ccc(/C=C/C(=O)Nc2ncc(Cc3cccc(C(F)(F)F)c3)s2)cc1 next?
Reply: 1 (yes)

Query: Can you handle COc1ccc(C(=O)Nc2ncc(Cc3cc(C(F)(F)F)cc(C(F)(F)F)c3)s2)cc1OCCO next?
Reply: 1 (yes)

---

assayed system: UniProtKB O00767
protocol text: Inhibition of SCD1 in human microsomes assessed as conversion of [14C]stearate to [14C]oleate after 60 mins
Parameters: species or system Microsome
reported property: IC50 (nM)
Respond numerically; units are nM and should not be typed.

Query: Quick one: IC50 of COc1ccc(C(=O)Nc2ncc(Cc3cccc(C(F)(F)F)c3)s2)cc1OCC(C)O (stereo not drawn) ?
Reply: 2160

Query: Can you handle COc1cc(C(=O)Nc2ncc(Cc3cccc(C(F)(F)F)c3)s2)ccc1OCC(=O)O next?
Reply: 4380

Query: Can you handle COc1ccc(C(=O)Nc2ncc(Cc3cc(F)cc(F)c3)s2)cc1OCCO next?
Reply: 2.9

---

assayed system: Acyl-CoA 6-desaturase (Homo sapiens)
protocol text: Inhibition of delta-6 desaturase in human microsomes assessed as conversion of [14C]linolenic acid to [14C]stearidonic acid at 10 uM
applied conditions: Microsome
I'd appreciate it if you could supply inhibition values for the items below.

Query: Quick one: inhibition of COc1cc(C(=O)Nc2ncc(Cc3cccc(C(F)(F)F)c3)s2)ccc1OCCN1CCOCC1 ?
Reply: < 5%

Query: Can you handle COc1ccc2cc(C(=O)Nc3ncc(Cc4cccc(C(F)(F)F)c4)s3)ccc2c1 next?
Reply: < 5%

Query: Can you handle COc1cc(C(=O)Nc2ncc(Cc3cccc(C(F)(F)F)c3)s2)ccc1OCC(=O)O next?
Reply: < 5%
